Entries are grouped by logP into these classes: bin A = under 1, bin B = from 1 up to 3, bin C = 3 and over

1) OC(Cn1ccnc1)c1ccc(CCc2ccccc2)cc1 (centres undefined)	bin C
2) O=[N+]([O-])c1ccc2c(c1)c([N+](=O)[O-])cc[n+]2[O-]	bin A
3) CN(C)C(=O)OCc1cccc(N(C)C)c1	bin B
4) CN(C)c1ccnnc1	bin A
5) NC(=O)Cc1cccnc1	bin A
6) C[C@]12CC[C@H](O)CC1=CC[C@@H]1[C@@H]2CC[C@]2(C)C(=O)CC[C@@H]12	bin C
7) O=[N+]([O-])c1cn[nH]c1	bin A
8) FS(F)(F)(F)(F)c1ccccc1	bin C
9) CCCCOC(C)=O	bin B
10) CCCCCCOc1ccccc1NC(=O)OCCN1CCCCC1	bin C
11) COc1cc(Cl)c(Cl)cc1O	bin C
12) CCC(C)c1ccccc1OC(=O)NC (centres undefined)	bin B
